Provide the reported LC retention time of each item.
assay: RP, Thermo Scientific Acclaim RSLC 120 C18, 100 × 2.1 mm, 2.2 µm, 30 °C, 0.2 mL/min, estimated dead time 1.1 min; A: 90% water + 10% methanol + 0.01% formic acid + 5 mM ammonium formate, pH 3.61; B: methanol + 0.01% formic acid + 5 mM ammonium formate, pH 3.61; gradient (min/%B) 0/1 1/1 2/39 13/99.9 15/99.9 15.1/1 20.1/1; details: stereoisomer not certain
Your answer is read as min, so omit the unit and give the number.

Q. Name the recorded LC retention time for CCNC1CC(C)S(=O)(=O)c2sc(S(N)(=O)=O)cc21 (centres undefined) [Dorzolamide] .
A. 3.19

Q. Try C=CCN1CCC23c4c5ccc(O)c4OC2C(=O)CCC3(O)C1C5 (centres undefined) [Naloxone] next.
A. 3.44

Q. Also, CON=C(C(=O)OC)c1ccccc1CON=C(C)c1cccc(C(F)(F)F)c1 [Trifloxystrobin] please.
A. 11.6

Q. Now try Cc1ccc2n[nH]nc2c1 [Benzotriazole- 5-Me] .
A. 5.83

Q. And then CCC(C(=O)c1ccc2c(c1)OCO2)N1CCCC1 (centres undefined) [MDPBP] , what is it?
A. 4.49

Q. Further, for N#Cc1nn(-c2c(Cl)cc(C(F)(F)F)cc2Cl)c(N)c1S(=O)(=O)C(F)(F)F [Fipronil-sulfone] ?
A. 11

Q. // repeat for COCC(NC(C)=O)C(=O)NCc1ccccc1 (centres undefined) [Lacosamide] and report
A. 5.09

Q. Subsequent entry: CC(=O)Nc1c(I)c(NC(C)=O)c(I)c(C(=O)O)c1I [Diatrizoate (Amidotrizoate acid)]
A. 2.79

Q. One more compound: CSc1nnc(C(C)(C)C)c(=O)n1N [Metribuzin]
A. 7.07

====

assay: RP, Thermo Scientific Acclaim RSLC 120 C18, 100 × 2.1 mm, 2.2 µm, 30 °C, 0.2 mL/min, estimated dead time 1.1 min; A: 90% water + 10% methanol + 0.01% formic acid + 5 mM ammonium formate, pH 3.61; B: methanol + 0.01% formic acid + 5 mM ammonium formate, pH 3.61; gradient (min/%B) 0/1 1/1 2/39 13/99.9 15/99.9 15.1/1 20.1/1; settings: stereoisomer not certain
readout-label: LC retention time (min)
Give just the number in min; leave the unit off.

Q. For the compound shown here, `O=C(O)c1cn(-c2ccc(F)cc2)c2cc(N3CCNCC3)c(F)cc2c1=O` , give the reported LC retention time.
A. 4.83

Q. And the next one, `CCCCCn1cc(C(=O)Nc2cccc3ccccc23)c2ccccc21` ?
A. 11.7

Q. And the next one, CC1(C)C(C=C(Cl)C(F)(F)F)C1C(=O)OC(C#N)c1cccc(Oc2ccccc2)c1 (configuration not stated) ?
A. 13

Q. NC(=O)c1cc[n+](CC2=C(C(=O)[O-])N3C(=O)C(NC(=O)Cc4cccs4)C3SC2)cc1 (configuration not stated) , same question.
A. 4.03

Q. Now give it for CN1CCCCC1Cn1cc(C(=O)c2cccc3ccccc23)c2ccccc21 (configuration not stated) too.
A. 8.09

Q. Param item: `C=CCN(CC=C)C(=O)C(Cl)Cl`
A. 7.18

Q. Now the same for NCC(O)COc1ccccc1C(=O)CCc1ccccc1 (configuration not stated)
A. 7.09

Q. Here is the next compound: `CC(C)OC(=O)Nc1ccc2nc(-c3cscn3)[nH]c2c1`
A. 7.66

Q. Please do the same for `CCCCCn1nc(C(=O)NC(C)(C)c2ccccc2)c2ccccc21` as well.
A. 12.5

Q. Repeat with `COC(=O)C1=CCCN(C)C1`
A. 1.74

Q. And then `CCNc1nc(Cl)nc(NCC)n1` , what is it?
A. 7.07

Q. And then `CCOC(=O)c1ccc(O)cc1` , what is it?
A. 7.15

Q. Next up: `C=CCN(CC=C)CCc1c[nH]c2ccc(OC)cc12`
A. 4.89

Q. Please give the result for `Cc1[nH]c(C)c(Cl)c(=O)c1Cl` too.
A. 4.2

Q. Field entry: CC12CCC3C4CCC(=O)C=C4CCC3C1CCC2OC(=O)CCc1ccccc1 (configuration not stated) [Nandrolone phenylpropionate]
A. 13.6

Q. Same lookup for CC(Cc1ccccc1)NCc1ccccc1Cl (configuration not stated) , please.
A. 6.82

Q. Moving on to CCCC(NC)C(=O)c1ccc2c(c1)OCO2 (configuration not stated)
A. 4.99

Q. Query `Cc1nc([N+](=O)[O-])cn1CCO` next
A. 3.58

Q. Another: COCC(=O)N(c1c(C)cccc1C)C(C)C(=O)OC (configuration not stated) [Metalaxyl]
A. 8.22

Q. Param item: `CCCC(C(=O)OCCN(CC)CC)(c1ccccc1)c1ccccc1`
A. 9.41

Q. Try this compound next: C=CCOC(Cn1ccnc1)c1ccc(Cl)cc1Cl (configuration not stated)
A. 9.09

Q. Entry CC12CCC(O)CC1CCC1C2C(=O)CC2(C)C1CCC2(O)C(=O)CO (configuration not stated) please
A. 9.21

Q. Follow-up entry: CC1CC2C3CC(F)C4=CC(=O)C=CC4(C)C3C(O)CC2(C)C1(O)C(=O)CO (configuration not stated)
A. 8.69

Q. Okay, and `CN(C)CCCN1c2ccccc2Sc2ccc(Cl)cc21` ?
A. 8.89

Q. Continue with Cc1cccc(C)c1OCC(=O)NC(Cc1ccccc1)C(O)CC(Cc1ccccc1)NC(=O)C(C(C)C)N1CCCNC1=O (configuration not stated)
A. 11.8

Q. Next compound: `CCOC(=O)N(C)C(=O)CSP(=S)(OCC)OCC`
A. 10.2

Q. Quick one: CC(C)([CH2][Sn+]([CH2]C(C)(C)c1ccccc1)[CH2]C(C)(C)c1ccccc1)c1ccccc1 [Fenbutatin Oxide Fragm 519]
A. 14.5

Q. Another compound to check: COc1ccc(-c2ccccc2)cc1NNC(=O)OC(C)C [Bifenazate]
A. 9.87

Q. What do we get for CN1CC2CC1CN2c1cc2c(cc1F)c(=O)c(C(=O)O)cn2C1CC1 (configuration not stated) ?
A. 4.54

Q. Likewise for OC(c1ccc(F)cc1)(c1cncnc1)c1ccccc1Cl (configuration not stated) ?
A. 9.17

Q. What do you get for `COc1cc2[nH]c(C)c(CCN3CCN(c4ccccc4)CC3)c2cc1OC` ?
A. 5.76

Q. Likewise for CC(C)(C)NCC(O)COc1cccc2c1CCCC2=O (configuration not stated) ?
A. 4.84

Q. Proceed to CC=CC(=O)Oc1c(C(C)CCCCCC)cc([N+](=O)[O-])cc1[N+](=O)[O-] (configuration not stated)
A. 13.1

Q. Consider next the compound CN1CCC23c4c5ccc(O)c4OC2C(O)C=CC3C1C5 (configuration not stated) in the same way.
A. 2.54

Q. Would you mind doing CCCCCn1cc(C(=O)N2CCN(C)CC2)c2ccccc21 [MEPIRAPIM] as well?
A. 7.75

Q. Please do the same for O=CNC(N1CCN(C(NC=O)C(Cl)(Cl)Cl)CC1)C(Cl)(Cl)Cl (configuration not stated) as well.
A. 8.65

Q. And the next one, CCCC1CC(C(=O)NC(C(C)Cl)C2OC(SC)C(O)C(O)C2O)N(C)C1 (configuration not stated) ?
A. 6.92

Attribution: the RepoRT retention time repository (doi:10.1021/acs.analchem.2c02893)
